Target: M41Δ178 (a truncated gp41 ectodomain fusion protein lacking the T20 amino acid sequence)
No end group written: not given here.

| Binder | Kd |
| --- | --- |
| WQEWEQKITALLEQAQIQQEKNEYELQKLDKWASLWEWF (not fully specified (N-terminus, C-terminus)) [T1249 (Ac-[…]-NH2)] | 1 to 2 nM |
